Where do the numbers come from? From PubChem BioAssay (NCI).

Would you mind telling me the reported growth inhibition of each entry?
Experiment: NCI Yeast Anticancer Drug Screen. Data for the mec2-1 strain (AID 157)
Details: S. cerevisiae mec2-1 strain, at 50.0 µM, stronger effect = higher value
The panel holds about 79,000 compounds, 15% with a hit somewhere; the sample as a whole holds those more often.
One number for each entry, in %.

In the examples that follow, each entry is paired with its recorded growth inhibition.
O=C1C(=C(O)c2ccccc2)C(=O)c2ccccc21 | 1.65
CCCCN(CCCC)CC(O)c1cc(Cl)c(Cl)cc1C (configuration not stated) | -13.2
O=S(=O)(O)C1CCC(O)C2[N-]CCCC21.O=S(=O)(O)C1CCC(O)C2[N-]CCCC21.[Zn+2] (configuration not stated) | 0.9
N#CCCc1ccccc1 | -7.95
Cc1c2ccccc2c(C)c2c1cc[n+]1ccccc21 | -1.35
CCOP(=O)(OCC)/C(C#N)=C/c1cnc[nH]1 | -30.6
CN1C2c3ccccc3C3C4c5ccccc5C(C31)C(C2[N+](=O)[O-])N4C (configuration not stated) | -30.8
CC(=O)CC(C)=O.CC(=O)CC(C)=O.CC(=O)CC(C)=O.[Tb] | -7.7
COc1cc2c(cc1OC)-c1c3c(cc4c1[C@H](C2)N(C)CC4)OCO3 | -7.7
CCCCOP(=O)(OCCCC)Oc1ccc2ccccc2c1 | 93.2

Give measured growth inhibition for every item shown.
1. CC(=N\[O-])/C(C)=N/[O-].CC(=N\[O-])/C(C)=N/[O-].[Cu+2]
2. CCC1(CCNC(=O)CCl)C(=O)NC(=O)NC1=O

Result:
1: 22.9; 2: -4.5
